Conditions used: in methanol, 323.15 K
Metric: solubility (mole fraction)
Number, no unit, nothing else.

Consider the compound shown here: `N#Cc1ccc(C(c2ccc(C#N)cc2)n2cncn2)cc1` What is its recorded solubility (mole fraction)?
0.00479

* * *

Conditions used: in n-propanol, 308.15 K
Metric: solubility (mole fraction)
The response must contain the number and no unit.

Look at this compound and give its reported solubility (mole fraction). `N#Cc1ccc(C(c2ccc(C#N)cc2)n2cncn2)cc1`
0.00125

* * *

Conditions used: in methyl acetate, 288.15 K
Metric: solubility (mole fraction)
Field format: numeric only.

Which measured solubility (mole fraction) value corresponds to `N#Cc1ccc(C(c2ccc(C#N)cc2)n2cncn2)cc1` ?
0.0119

Where do the numbers come from? From BigSolDB 2.1.
